B1: CSNK1G1 (parent)
chain: GSLPWQGLKADTLKERYQKIGDTK

Variants of: B1
method-notes: protein stability index of a GFP-peptide fusion (GPS, HEK-293T) (PSI 1-6); higher = more stable;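 note: lentivirally expressed fusions sorted by FACS into six bins by GFP to DsRed ratio, PSI derived from sequencing read proportions per bin multiplied by bin number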
stated-conditions: c terminus: a fixed tail appended
assay-readout: protein stability index
One number for each entry.

Worked examples follow.
Y17V | 4.04
S2Y | 4.01

Parameter requested: protein stability index. Apply to each item below.
1. T23N
2. Q6R
3. P4V

1. 3.92
2. 3.96
3. 4.09
